Inhibition reference
# System: HepG2
# assay.info: GSK_TCMDC: Percent inhibition of human HepG2 cell line. Test compounds present at 10uM.
# Type: functional
Response body: numeric value in %, unit text excluded.

molecule=Cl.c1ccc(CN2CCN(CCNc3c4ccccc4nc4ccccc34)CC2)cc1 experimental_target=HepG2 readout_kind=Inhibition numeric_readout=44

Form field: reported Inhibition of O=C(Nc1ccc(OC2CCN(Cc3ccccc3)C2)c(Cl)c1)c1cccs1.O=C(O)C(F)(F)F (centres undefined) 13

---

# Tested on: HepG2
# assay.info: GSK_TCMDC: Percent inhibition of human HepG2 cell line. Test compounds present at 10uM.
# Type: functional
readout.kind: Inhibition (%)
Response body: numeric value in %, unit text excluded.

Examples from the recorded data:
compound=O=C(NCc1cccs1)[C@H](Cc1ccccc1)Nc1ccnc(NCC2CCCCC2)n1.O=C(O)C(F)(F)F experimental_target=HepG2 unit_of_measurement=% numeric_readout=5
compound=COc1ccc2c(=NN=C(C)c3ccccn3)cc(C)[nH]c2c1 experimental_target=HepG2 unit_of_measurement=% numeric_readout=33

Form field: reported Inhibition of CCOc1c(Br)cc(C)cc1CNCCCNc1nc2ccccc2[nH]1.Cl 24

Next entry: CCc1c[nH]c2c(N3CCCCS3(=O)=O)cc(C(=O)N[C@@H](Cc3ccccc3)[C@H](O)CNCc3cccc(OC)c3)cc12.O=CO 0

Next entry: COCCNCc1cccc(-c2ccc3nccc(Nc4cc(O)ccc4C)c3c2)c1 0

---

# Test system: Plasmodium falciparum
# assay.info: GSK_TCMDC: Inhibition of Plasmodium falciparum 3D7 in whole red blood cells, using parasite LDH activity as an index of growth. Test compounds present at 2uM
# Type: functional
Each entry gets Not met if its Inhibition stays under 90%, and Met if its Inhibition is 90% or above.

These recorded examples may help you get a feel for the data.
compound="COc1ccc2cc(C(c3nnnn3CC3CCCO3)N3CCc4ccccc43)c(=O)[nH]c2c1 (stereo not drawn)" category_label=Met
compound=C=C1C[C@@H](n2cnc3c(NC(=O)c4ccccc4)ncnc32)[C@@H](F)[C@@H]1OC(c1ccccc1)(c1ccccc1)c1ccccc1 category_label=Met
compound=COc1cccc(NC(=O)NC2CCN(CCCCCNC(=O)/C=C/c3ccc(Cl)c(Cl)c3)CC2)c1 category_label=Met
compound="CC[C@H]1CN2CCc3c([nH]c4ccccc34)[C@@H]2C[C@@H]1CC1c2cc(OC)c(OC)cc2CCN1C.Cl (stereo partly drawn)" category_label="Not met"

Inhibition >= 90% for CCc1c[nH]c2c(N3CCCCS3(=O)=O)cc(C(=O)N[C@@H](Cc3ccccc3)[C@H](O)CNCc3cccc(OC)c3)cc12.O=CO ? Not met

Next entry: CCN1CCCC1CNC(=O)c1cc2c(-c3ccc(Cl)cc3)nn(C)c2s1 (stereo not drawn) Met

---

# Tested on: Plasmodium falciparum
# assay.info: GSK_TCMDC: Inhibition of Plasmodium falciparum Dd2 in whole red blood cells, using parasite LDH activity as an index of growth. Test compounds present at 2uM
# Type: functional
Each entry falls in a class defined on Inhibition; the bands are interval 1: < 8%; interval 2: ≥ 8% and < 60%; interval 3: ≥ 60%

Classify this compound: Cn1cnc(CCNC(=O)c2ccc(-c3ccc(-c4nc5cc(F)ccc5[nH]4)cc3)cc2)c1 interval 2

Next entry: Cc1cc(F)ccc1N(c1nc(-c2cc(Cl)ccc2Cl)cs1)C1CCNC1.O=C(O)C(F)(F)F (configuration not stated) interval 1
